Items are presented alongside their recorded log2 fold change of degron read counts.
# Test system: T1, CRBN, Q96SW2;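 also: pooled lentiviral library of zinc finger degron-EGFP fusions in mCherry-positive Jurkat cells, FACS-sorted after compound exposure, with degron abundance counted by next-generation sequencing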
# T1 chain: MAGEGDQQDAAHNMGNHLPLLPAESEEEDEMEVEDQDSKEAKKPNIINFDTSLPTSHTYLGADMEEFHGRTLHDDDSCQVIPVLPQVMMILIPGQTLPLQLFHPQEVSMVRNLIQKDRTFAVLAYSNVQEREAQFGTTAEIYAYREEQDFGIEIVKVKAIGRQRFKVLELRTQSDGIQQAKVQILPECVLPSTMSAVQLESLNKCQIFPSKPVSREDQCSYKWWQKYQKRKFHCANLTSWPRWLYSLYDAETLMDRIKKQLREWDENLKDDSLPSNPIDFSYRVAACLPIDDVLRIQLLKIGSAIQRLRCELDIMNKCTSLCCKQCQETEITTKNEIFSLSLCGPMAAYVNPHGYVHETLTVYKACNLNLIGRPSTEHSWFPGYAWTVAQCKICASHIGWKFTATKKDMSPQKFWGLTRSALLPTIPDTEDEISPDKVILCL
# Test: log2 fold change of degron read counts, EGFP-low vs EGFP+ sorted cells (limma voom), compound-induced degradation; higher = more compound-induced degradation of the degron-EGFP fusion; degrons are variants of IKZF1/3 zinc finger 2; compound dose not given here
# Cond: Jurkat; 18 h; compound: compound 19 (5-tert-butyl-thalidomide)
Whole data set: some 8,300 sequences, median “log2 fold change of degron read counts, EGFP-low vs EGFP+ sorted cells (limma voom), compound-induced degradation” near -1.1, cut for the highest 2% near 3.2. The sample holds the highest values, similar sequences and a random draw of the others, so the mix is not that of the screen.
Lab note: jot the number down without any unit.

Read off the recorded log2 fold change of degron read counts for FVCNQCGHVFTQKGNLLRHIKL [46F_47V_49N_50Q_52G_53H_54V_55F_67L_, Q9UKT9]
-2.66

Consider the sequence FICEICGRMFTQKGNLLRHIKL [46F_47I_49E_50I_52G_53R_54M_55F_67L_, Q9UKT9] . State its measured log2 fold change of degron read counts.
-2.48

Write down log2 fold change of degron read counts measured for item LHCEICGFCCTQKGNLLRHIKL [46L_47H_49E_50I_52G_53F_54C_55C_67L_, Q9UKT9]
1.84

Here is another sequence to look at.
Specify reported log2 fold change of degron read counts for the sequence shown: LFCEICGFQCTQKGNLLRHIKL [46L_47F_49E_50I_52G_53F_54Q_55C_67L_, Q9UKT9]
3.43
